System: human SMAD7 mRNA
Experiment: Antisense inhibition of human SMAD7 mRNA expression in Hep3B cells by 5-10-5 MOE gapmers, single concentration, electroporation, RT-PCR (Example 1, Study 1 and 2)
Type: cell-based
Settings: electroporation with 15,000 nM antisense oligonucleotide (Study 2), 5-10-5 MOE gapmers targeting SEQ ID NO: 1 and 2
Strand notation (5' to 3'): a small letter for the sugar, then the base; units joined by * are phosphorothioate-linked, units joined directly phosphodiester-linked; [ ] holds rarer units or linkages, { } end groups; capitals alone tell only the bases. e = 2'-O-(2-methoxyethyl) (MOE); [5mC] = 5-methylcytosine; d = 2'-deoxy (DNA)
Recorded % Inhibition of SMAD7 mRNA by entry
Reply with a number, then the unit it belongs to.

Example cases with answers are listed next.
1) 771497 (antisense eG*eA*eA*eG*eA*dT*dG*dA*d[5mC]*d[5mC]*dT*d[5mC]*dT*dA*dG*e[5mC]*e[5mC]*eA*eG*e[5mC]) [compound 771497] : 25%
2) 771520 (antisense eA*eT*eG*eA*eA*dA*dA*dG*d[5mC]*dA*dA*dG*d[5mC]*dA*d[5mC]*eT*e[5mC]*eA*eG*eG) [compound 771520] : 37%

# % Inhibition of SMAD7 mRNA (substance: 771784 (antisense eT*eA*eA*eA*eT*d[5mC]*dA*dA*dG*dA*dG*d[5mC]*dT*dG*dA*eA*eA*eT*eT*e[5mC]) [compound 771784] ) is 1%

# % Inhibition of SMAD7 mRNA (substance: 771379 (antisense eG*eA*eT*e[5mC]*e[5mC]*dA*dT*d[5mC]*dT*dT*dT*dA*dA*dG*d[5mC]*eA*e[5mC]*eG*e[5mC]*eT) [compound 771379] ) is 21%

# % Inhibition of SMAD7 mRNA (substance: 771680 (antisense eA*eT*eT*eT*eA*dT*dA*dT*dT*dA*dA*dA*dG*d[5mC]*dA*eA*eA*eG*eT*eG) [compound 771680] ) is 0%

# % Inhibition of SMAD7 mRNA (substance: 771387 (antisense eA*eG*e[5mC]*eA*eT*d[5mC]*dT*dG*dG*dA*d[5mC]*dA*dG*dT*d[5mC]*eT*eG*e[5mC]*eT*eG) [compound 771387] ) is 59%

###

Recorded % Inhibition by entry
Tested on: human SMAD7 mRNA
Experiment: Antisense inhibition of human SMAD7 mRNA expression in Hep3B cells by 3-10-3 cEt gapmers, 10,000 nM, electroporation (Example 2)
Format: cell-based
Settings: Hep3B cells, electroporation with 10,000 nM antisense oligonucleotide, approximately 24 hours, primer probe set RTS5062, relative to untreated control cells
Strand notation (5' to 3'): a small letter for the sugar, then the base; units joined by * are phosphorothioate-linked, units joined directly phosphodiester-linked; [ ] holds rarer units or linkages, { } end groups; capitals alone tell only the bases. k = constrained ethyl (cEt); [5mC] = 5-methylcytosine; d = 2'-deoxy (DNA)
Express the result in % but write the number alone.

1. 799055 (antisense kG*k[5mC]*kT*d[5mC]*dA*dG*dA*dA*dG*d[5mC]*d[5mC]*dT*dG*kT*kG*kG) [compound 799055] : 19

Hey, human SMAD7 mRNA data for 799113 (antisense kG*kA*kT*dG*dG*dG*dA*dG*d[5mC]*dA*dG*dG*d[5mC]*kA*kG*kT) [compound 799113] : % Inhibition came out at 57

Hey, human SMAD7 mRNA data for 798953 (antisense kA*kG*k[5mC]*dT*dA*dT*dT*dT*d[5mC]*dT*d[5mC]*dA*dA*kA*kG*kA) [compound 798953] : % Inhibition came out at 17

###

Test system: human SMAD7 mRNA
Test: Antisense inhibition of human SMAD7 mRNA expression in Hep3B cells by 5-10-5 MOE gapmers, single concentration, electroporation, RT-PCR (Example 1, Study 1 and 2)
Format: cell-based
Settings: electroporation, 15,000 nM antisense oligonucleotide (Study 2), 5-10-5 MOE gapmers targeting SEQ ID NO: 1 and 2
Strand notation (5' to 3'): a small letter for the sugar, then the base; units joined by * are phosphorothioate-linked, units joined directly phosphodiester-linked; [ ] holds rarer units or linkages, { } end groups; capitals alone tell only the bases. e = 2'-O-(2-methoxyethyl) (MOE); [5mC] = 5-methylcytosine; d = 2'-deoxy (DNA)
Recorded % inhibition of SMAD7 mRNA expression by entry
Express the result in % but write the number alone.

1) 771818 (antisense eT*eG*eA*eA*eG*dA*d[5mC]*dA*dA*d[5mC]*dT*dG*d[5mC]*dT*dT*eT*eG*eA*eG*eA) [compound 771818] : 38
2) 771856 (antisense e[5mC]*eT*eG*eA*eA*dA*dG*dA*dA*dA*dG*dT*d[5mC]*d[5mC]*d[5mC]*eG*eA*e[5mC]*eT*eT) [compound 771856] : 34

Now look at this entry.
# % inhibition of SMAD7 mRNA expression (substance: 771513 (antisense eA*eG*e[5mC]*eA*eA*dA*dG*dT*dA*dG*dT*dT*dT*dG*dA*eA*eG*eT*eG*eT) [compound 771513] ) is 34

###

Recorded Bilirubin by entry
Assay: Blood chemistry markers after oral gavage in CD-1 mice (Example 7)
Assay type: in vivo
Details: 500 mg/kg oral gavage once daily for 4 weeks, day 30
Express the result in mg/dL but write the number alone.

Example cases with answers are listed next.
1. 798781 (CGTAAGATTCACAGCA; 3-10-3 cEt gapmer, further chemistry not given here) [compound 798781] : 0.3
2. 830037 (antisense CTATTGGCTGATCTGG; 3-10-3 cEt gapmer, further chemistry not given here) [compound 830037] : 0.3

Now look at this entry.
# Bilirubin (substance: 790615 (CCAATGAGAATGCTTC; 3-10-3 cEt gapmer, further chemistry not given here) [compound 790615] ) is 0.3

###

Tested on: human peripheral blood mononuclear cells (PBMCs)
Assay: Human PBMC activation assay, cytokine levels (IL-10, IL-6, MCP-1, TNF-α) in supernatant after 24 hours (Example 9)
Conditions: human PBMC supernatant after 24 hours; 0.0128 μM oligonucleotide
VALUE_TYPE: Levels of IL-10 (pg/mL)
Express the result in pg/mL but write the number alone.

Example cases with answers are listed next.
1. 790615 (CCAATGAGAATGCTTC; 3-10-3 cEt gapmer, further chemistry not given here) [compound 790615] : 1.1
2. 829994 (GGAGGCAGGGCCGCGA; 3-10-3 cEt gapmer, further chemistry not given here) [compound 829994] : 2.0
3. 830037 (antisense CTATTGGCTGATCTGG; 3-10-3 cEt gapmer, further chemistry not given here) [compound 830037] : 1.6

Now look at this entry.
# Levels of IL-10 (substance: 798781 (CGTAAGATTCACAGCA; 3-10-3 cEt gapmer, further chemistry not given here) [compound 798781] ) is 2.2

###

Tested on: human SMAD7 mRNA
Assay: Antisense inhibition of human SMAD7 mRNA expression in Hep3B cells by 5-10-5 MOE gapmers, single concentration, electroporation, RT-PCR (Example 1, Study 1 and 2)
Format: cell-based
Details: electroporation, 15,000 nM, approximately 24 hours, relative to untreated control cells, gapmers targeting SEQ ID NO: 1 and 2
Strand notation (5' to 3'): a small letter for the sugar, then the base; units joined by * are phosphorothioate-linked, units joined directly phosphodiester-linked; [ ] holds rarer units or linkages, { } end groups; capitals alone tell only the bases. e = 2'-O-(2-methoxyethyl) (MOE); [5mC] = 5-methylcytosine; d = 2'-deoxy (DNA)
Label 1 (yes) when % inhibition of SMAD7 mRNA expression >= 30%; otherwise 0 (no).

# check: % inhibition of SMAD7 mRNA expression of 771360 (antisense eA*e[5mC]*e[5mC]*eT*eT*dG*dT*d[5mC]*dA*d[5mC]*d[5mC]*d[5mC]*dG*dT*d[5mC]*eT*eG*eG*eG*e[5mC]) [compound 771360] is greater than or equal to 30%
1 (yes)

# check: % inhibition of SMAD7 mRNA expression of 771749 (antisense eG*eA*eA*eA*eT*dG*dG*dA*dG*dT*dT*dA*d[5mC]*dT*dT*eG*eT*eT*eA*eA) [compound 771749] is greater than or equal to 30%
0 (no)

# check: % inhibition of SMAD7 mRNA expression of 771901 (antisense eA*eA*eA*eA*eT*dG*d[5mC]*d[5mC]*d[5mC]*dA*d[5mC]*d[5mC]*dA*dG*dT*e[5mC]*eT*eT*e[5mC]*e[5mC]) [compound 771901] is greater than or equal to 30%
1 (yes)

# check: % inhibition of SMAD7 mRNA expression of 771925 (antisense eG*eG*e[5mC]*e[5mC]*eT*d[5mC]*dT*d[5mC]*dG*d[5mC]*dT*dG*dA*dT*dA*eG*eT*eT*eA*eA) [compound 771925] is greater than or equal to 30%
0 (no)

# check: % inhibition of SMAD7 mRNA expression of 771845 (antisense eT*eT*e[5mC]*e[5mC]*eA*dA*dG*d[5mC]*dA*d[5mC]*dG*dG*dA*dG*dT*e[5mC]*eA*eG*e[5mC]*e[5mC]) [compound 771845] is greater than or equal to 30%
1 (yes)

# check: % inhibition of SMAD7 mRNA expression of 771414 (eT*e[5mC]*eG*eG*e[5mC]*dT*dG*dT*d[5mC]*d[5mC]*dG*dT*d[5mC]*dG*d[5mC]*e[5mC]*e[5mC]*e[5mC]*eT*eT; antisense) [compound 771414] is greater than or equal to 30%
1 (yes)

# check: % inhibition of SMAD7 mRNA expression of 771422 (eA*eT*e[5mC]*e[5mC]*eA*dG*d[5mC]*d[5mC]*d[5mC]*dT*dG*d[5mC]*d[5mC]*d[5mC]*dG*eG*eG*e[5mC]*e[5mC]*eG; antisense) [compound 771422] is greater than or equal to 30%
0 (no)

# check: % inhibition of SMAD7 mRNA expression of 771368 (antisense e[5mC]*eG*eG*e[5mC]*e[5mC]*dT*dT*dG*dA*dT*dG*d[5mC]*dT*dG*dA*eT*eT*eA*eT*eT) [compound 771368] is greater than or equal to 30%
0 (no)

# check: % inhibition of SMAD7 mRNA expression of 771573 (antisense eG*e[5mC]*eT*eT*eG*dG*dG*dA*d[5mC]*dT*dG*d[5mC]*dA*dA*dA*e[5mC]*e[5mC]*eT*e[5mC]*eT) [compound 771573] is greater than or equal to 30%
1 (yes)

# check: % inhibition of SMAD7 mRNA expression of 771757 (antisense eT*e[5mC]*e[5mC]*e[5mC]*e[5mC]*dT*dT*dT*dT*dT*dT*dA*dA*dT*dT*eG*eA*eG*eG*eA) [compound 771757] is greater than or equal to 30%
1 (yes)
